// data source = patent US4065460A

System: Ovalbumin-induced systemic edema
assay details: Ovalbumin-induced systemic edema method (anti-inflammatory action)
Format: in vivo
settings: Rattus norvegicus, po; rats, 100 mg/kg orally (1 hour prior and simultaneously), with respect to control group, after 3 hrs; read-out: Percent decrease of the edema reaction after 3 hrs
Procedure: b. Ovalbumin-induced systemic edema method Rats are administered a simultaneous intraperitoneal injection of 1 ml ovalbumin and 0.5 ml of a 1% Evans Blue solution. The animals of the treated group are additionally administered orally 100 mg/kg of the test derivative, one hour prior to ovalbumin administration and then simultaneously with said ovalbumin administration. […] Thus are determined the mean intensity of the edema and the percent decrease of the edema reaction with respect to the control group.
Below: a set of entries, each annotated with reported inhibition in vivo at 100 mg/kg.
Your answer is read as %, so omit the unit and give the number.

Example cases with answers are listed next.
COC1(C)c2sccc2CNC1C (stereo not shown); 63
CCOC1(C)CNCc2ccsc21 (stereo not shown); 58
COC1CNCc2ccsc21 (stereo not shown); 60

Req: What inhibition in vivo at 100 mg/kg value was documented for this molecule, c1ccc(COC2CNCc3ccsc32)cc1 (stereo not shown) ?
Resp: 64

---

Tested on: carrageenin-induced edema
assay details: Localized carrageenin-induced edema method (anti-inflammatory action)
Assay type: in vivo
settings: Rattus norvegicus, po; rats, 100 mg/kg orally (1 hour prior, simultaneously, 1 hour and 2.5 hours after), after 1 hour; read-out: Percent anti-inflammatory activity after 1 hour
assay metric: inhibition in vivo at 100 mg/kg
The answer consists of two parts: a number and, after it, its unit.

COC1CNCc2ccsc21 (stereo not shown) [Derivative 1]; 35%
CC(C)COC1CNCc2ccsc21 (stereo not shown) [Derivative 3]; 39%
CCOC1c2sccc2CNC1C (stereo not shown) [Derivative 8]; 38%
c1ccc(COC2CNCc3ccsc32)cc1 (stereo not shown) [Derivative 4]; 42%
COC1(C)c2sccc2CNC1C (stereo not shown) [Derivative 9]; 44%

Req: What inhibition in vivo at 100 mg/kg value was documented for this compound, COC1(C)CNCc2ccsc21 (stereo not shown) [Derivative 5] ?
Resp: 39%

Req: What inhibition in vivo at 100 mg/kg value was documented for this compound, COC1c2sccc2CNC1C (stereo not shown) [Derivative 7] ?
Resp: 36%

Req: What inhibition in vivo at 100 mg/kg value was documented for this compound, COC1c2sccc2CNC1c1ccccc1 (stereo not shown) [Derivative 10] ?
Resp: 37%

Req: What inhibition in vivo at 100 mg/kg value was documented for this compound, CCOC1(C)CNCc2ccsc21 (stereo not shown) [Derivative 6] ?
Resp: 40%

Req: What inhibition in vivo at 100 mg/kg value was documented for this compound, CCOC1CNCc2ccsc21 (stereo not shown) [Derivative 2] ?
Resp: 36%

---

System: Ovalbumin-induced systemic edema
assay details: Ovalbumin-induced systemic edema method (anti-inflammatory action)
Type: in vivo
settings: Rattus norvegicus, po; rats, 100 mg/kg orally (1 hour prior and simultaneously), with respect to control group, after 3 hrs; read-out: Percent decrease of the edema reaction after 3 hrs
Rule: YES for inhibition in vivo at 100 mg/kg not less than 60%, NO for anything less.

Past entries and their recorded results:
CC(C)COC1CNCc2ccsc21 (stereo not drawn); YES
COC1c2sccc2CNC1C (stereo not drawn); NO
CCOC1c2sccc2CNC1C (stereo not drawn); NO

Then there is this molecule:
Req: Determine whether measured inhibition in vivo at 100 mg/kg meets or exceeds 60% for COC1c2sccc2CNC1c1ccccc1 (stereo not drawn)
Resp: NO

---

Below: a set of entries, each annotated with reported inhibition in vivo at 100 mg/kg.
Test system: Ovalbumin-induced systemic edema
assay details: Ovalbumin-induced systemic edema method (anti-inflammatory action)
Assay type: in vivo
settings: Rattus norvegicus, po; rats, 100 mg/kg orally (1 hour prior and simultaneously), with respect to control group, after 2 hrs; read-out: Percent decrease of the edema reaction after 2 hrs
Your answer is read as %, so omit the unit and give the number.

Example cases with answers are listed next.
COC1c2sccc2CNC1c1ccccc1 (stereo not shown) [Derivative 10]; 48
COC1c2sccc2CNC1C (stereo not shown) [Derivative 7]; 47
c1ccc(COC2CNCc3ccsc32)cc1 (stereo not shown) [Derivative 4]; 53
COC1CNCc2ccsc21 (stereo not shown) [Derivative 1]; 51
COC1(C)CNCc2ccsc21 (stereo not shown) [Derivative 5]; 49
CCOC1(C)CNCc2ccsc21 (stereo not shown) [Derivative 6]; 44
COC1(C)c2sccc2CNC1C (stereo not shown) [Derivative 9]; 50
CCOC1c2sccc2CNC1C (stereo not shown) [Derivative 8]; 44

Req: What inhibition in vivo at 100 mg/kg value was documented for this compound, CCOC1CNCc2ccsc21 (stereo not shown) [Derivative 2] ?
Resp: 48

Req: What inhibition in vivo at 100 mg/kg value was documented for this compound, CC(C)COC1CNCc2ccsc21 (stereo not shown) [Derivative 3] ?
Resp: 51

---

Test system: mechanical stimulation (pressure forceps at the base of the tail)
assay details: Antalgic action, mechanical stimulation method according to Haffner
Format: in vivo
settings: mouse, 100 mg/kg oral, after 1 hr; read-out: mean percent antalgia after 1 hr
assay metric: inhibition in vivo at 100 mg/kg (%)
Your answer is read as %, so omit the unit and give the number.

Example cases with answers are listed next.
CC(C)COC1CNCc2ccsc21 (stereo not shown); 60
c1ccc(COC2CNCc3ccsc32)cc1 (stereo not shown); 69
CCOC1CNCc2ccsc21 (stereo not shown); 66
COC1c2sccc2CNC1c1ccccc1 (stereo not shown); 66

Req: inhibition in vivo at 100 mg/kg of COC1(C)CNCc2ccsc21 (stereo not shown) on mechanical stimulation (pressure forceps at the base of the tail)?
Resp: 61

Req: inhibition in vivo at 100 mg/kg of COC1CNCc2ccsc21 (stereo not shown) on mechanical stimulation (pressure forceps at the base of the tail)?
Resp: 63

Req: inhibition in vivo at 100 mg/kg of CCOC1c2sccc2CNC1C (stereo not shown) on mechanical stimulation (pressure forceps at the base of the tail)?
Resp: 65

Req: inhibition in vivo at 100 mg/kg of COC1c2sccc2CNC1C (stereo not shown) on mechanical stimulation (pressure forceps at the base of the tail)?
Resp: 65

Req: inhibition in vivo at 100 mg/kg of CCOC1(C)CNCc2ccsc21 (stereo not shown) on mechanical stimulation (pressure forceps at the base of the tail)?
Resp: 60

Req: inhibition in vivo at 100 mg/kg of COC1(C)c2sccc2CNC1C (stereo not shown) on mechanical stimulation (pressure forceps at the base of the tail)?
Resp: 63

---

assay details: Acute intravenous toxicity (LD50, method according to MILLER and TAINTER)
settings: mouse, in vivo, Swiss mice, read-out: LD50 /24hrs/kg of the animal
Below: a set of entries, each annotated with reported LD50 at 24 h.
The answer consists of two parts: a number and, after it, its unit.

CCOC1c2sccc2CNC1C (stereo not shown); 129 mg/kg
CCOC1(C)CNCc2ccsc21 (stereo not shown); 224 mg/kg
COC1c2sccc2CNC1C (stereo not shown); 210 mg/kg
COC1CNCc2ccsc21 (stereo not shown); 262 mg/kg
COC1c2sccc2CNC1c1ccccc1 (stereo not shown); 195 mg/kg

Req: What LD50 at 24 h value was documented for this compound, c1ccc(COC2CNCc3ccsc32)cc1 (stereo not shown) ?
Resp: 95 mg/kg

Req: What LD50 at 24 h value was documented for this compound, CC(C)COC1CNCc2ccsc21 (stereo not shown) ?
Resp: 180 mg/kg

Req: What LD50 at 24 h value was documented for this compound, COC1(C)c2sccc2CNC1C (stereo not shown) ?
Resp: 175 mg/kg

Req: What LD50 at 24 h value was documented for this compound, CCOC1CNCc2ccsc21 (stereo not shown) ?
Resp: 145 mg/kg

Req: What LD50 at 24 h value was documented for this compound, COC1(C)CNCc2ccsc21 (stereo not shown) ?
Resp: 138 mg/kg
